The origin of these recorded values is patent US20090169546A1.

- ASSAYED_SYSTEM: T1, recombinant HMG1 produced in E. coli as calmodulin binding protein (CBP) fusion (human)
- T1 chain: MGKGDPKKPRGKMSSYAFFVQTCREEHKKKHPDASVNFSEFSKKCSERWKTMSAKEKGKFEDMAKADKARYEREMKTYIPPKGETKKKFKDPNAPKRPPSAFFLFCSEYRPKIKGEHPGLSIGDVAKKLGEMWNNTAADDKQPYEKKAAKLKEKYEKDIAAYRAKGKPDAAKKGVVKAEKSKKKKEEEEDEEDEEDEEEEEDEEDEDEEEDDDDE
- PROTOCOL_DESCRIPTION: cell-based or functional assay
For each entry below, report its IC50, inhibition of rHMG1 stimulated IL-1β release from human PBMCs value.
Answer format reminder: number followed by unit.

# annotated cases, reported IC50, inhibition of rHMG1 stimulated IL-1β release from human PBMCs shown
| BINDER | VALUE_OBSERVED |
| --- | --- |
| anti-HMG1 antibody G2 (antibody, V domains shown) VH: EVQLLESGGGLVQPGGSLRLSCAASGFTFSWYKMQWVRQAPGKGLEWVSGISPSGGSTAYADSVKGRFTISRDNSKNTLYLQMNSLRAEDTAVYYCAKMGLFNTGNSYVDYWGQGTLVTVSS VL: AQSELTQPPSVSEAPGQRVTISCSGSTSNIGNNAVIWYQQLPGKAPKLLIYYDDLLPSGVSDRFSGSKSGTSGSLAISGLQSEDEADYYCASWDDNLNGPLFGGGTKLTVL | 5.03 µg/mL |
| anti-HMG1 antibody S14 (antibody, V domains shown) VH: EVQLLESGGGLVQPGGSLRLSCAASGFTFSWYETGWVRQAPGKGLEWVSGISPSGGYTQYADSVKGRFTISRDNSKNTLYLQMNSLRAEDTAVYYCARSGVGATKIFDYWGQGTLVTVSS VL: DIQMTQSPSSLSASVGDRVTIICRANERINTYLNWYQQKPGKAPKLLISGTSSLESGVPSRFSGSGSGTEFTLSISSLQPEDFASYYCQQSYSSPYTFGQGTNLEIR | 0.0678 µg/mL |
| anti-HMG1 antibody G4 (antibody, V domains shown, also called ATCC PTA-6258) VH: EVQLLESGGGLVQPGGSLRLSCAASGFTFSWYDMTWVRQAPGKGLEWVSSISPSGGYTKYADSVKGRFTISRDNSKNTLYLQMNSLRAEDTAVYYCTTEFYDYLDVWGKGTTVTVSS VL: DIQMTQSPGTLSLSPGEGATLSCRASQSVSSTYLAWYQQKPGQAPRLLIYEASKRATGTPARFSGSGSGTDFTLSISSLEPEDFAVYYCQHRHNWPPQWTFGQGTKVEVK | 5.01 µg/mL |

For every item in the list below, what is its measured IC50, inhibition of rHMG1 stimulated IL-1β release from human PBMCs?
1. anti-HMG1 antibody S17 (antibody, V domains shown) VH: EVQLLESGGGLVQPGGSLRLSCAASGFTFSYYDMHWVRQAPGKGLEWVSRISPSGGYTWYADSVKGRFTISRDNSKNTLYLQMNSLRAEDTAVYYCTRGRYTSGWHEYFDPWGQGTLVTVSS VL: DIQMTQSPSSLSASVGDRVTITCRASQSIGTYLNWYQQKPGTAPKVLIYAASSLQSGVPSRFSGSGSGTDFTLTISSLQPEDFSTYYCQQSYNTPRTFGQGTKLEIK
2. anti-HMG1 antibody S10 (antibody, V domains shown) VH: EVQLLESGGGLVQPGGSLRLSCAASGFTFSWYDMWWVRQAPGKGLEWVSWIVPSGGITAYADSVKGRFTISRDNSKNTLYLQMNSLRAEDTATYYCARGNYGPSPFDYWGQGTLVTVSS VL: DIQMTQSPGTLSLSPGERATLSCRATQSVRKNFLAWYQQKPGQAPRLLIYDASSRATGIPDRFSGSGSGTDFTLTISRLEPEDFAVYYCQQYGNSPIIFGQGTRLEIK
3. anti-HMG1 antibody S16 (antibody, V domains shown, also called ATCC PTA-6259) VH: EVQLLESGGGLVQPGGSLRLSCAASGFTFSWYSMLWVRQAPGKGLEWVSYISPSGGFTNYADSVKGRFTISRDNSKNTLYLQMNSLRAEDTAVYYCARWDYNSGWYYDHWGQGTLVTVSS VL: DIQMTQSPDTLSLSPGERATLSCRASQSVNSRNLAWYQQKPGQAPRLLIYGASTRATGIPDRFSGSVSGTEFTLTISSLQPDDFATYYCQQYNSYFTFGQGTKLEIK
4. anti-HMG1 antibody G20 (antibody, V domains shown) VH: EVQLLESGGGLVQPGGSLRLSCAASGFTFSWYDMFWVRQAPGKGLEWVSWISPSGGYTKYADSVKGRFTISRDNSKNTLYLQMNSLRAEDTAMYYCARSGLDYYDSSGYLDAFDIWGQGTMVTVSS VL: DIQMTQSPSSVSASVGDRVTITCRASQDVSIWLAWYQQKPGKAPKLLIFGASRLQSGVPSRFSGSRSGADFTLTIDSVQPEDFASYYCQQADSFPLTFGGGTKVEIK
5. anti-HMG1 antibody G9 (antibody, V domains shown) VH: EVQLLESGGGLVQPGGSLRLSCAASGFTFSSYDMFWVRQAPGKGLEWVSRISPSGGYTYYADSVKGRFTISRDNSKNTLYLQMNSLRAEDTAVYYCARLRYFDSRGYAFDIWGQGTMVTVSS VL: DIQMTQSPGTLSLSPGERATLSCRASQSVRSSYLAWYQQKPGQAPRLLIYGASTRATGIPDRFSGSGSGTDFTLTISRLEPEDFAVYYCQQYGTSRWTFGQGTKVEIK
6. anti-HMG1 antibody G12 (antibody, V domains shown) VH: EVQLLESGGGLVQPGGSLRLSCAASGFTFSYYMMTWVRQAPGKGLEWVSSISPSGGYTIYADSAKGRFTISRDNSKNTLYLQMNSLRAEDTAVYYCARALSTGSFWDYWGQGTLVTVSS VL: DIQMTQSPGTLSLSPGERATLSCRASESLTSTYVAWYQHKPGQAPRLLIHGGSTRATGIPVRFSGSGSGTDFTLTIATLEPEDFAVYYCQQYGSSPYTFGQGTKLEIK

["0.0809 µg/mL", "2.59 µg/mL", "6.05 µg/mL", "0.4 µg/mL", "0.211 µg/mL", "5.91 µg/mL"]
